system: SARS-CoV-2 spike protein on live virus, strain USA-WA1/2020 (SARS-CoV-2, WA01/2020 strain, UniProt P0DTC2 14-1273)
test.name: cell-based or functional assay
observable: Live Neut, WA1/2020 IC50 (pM)

[[record]]
binder = "antibody 2619 (antibody, V domains shown) VH: EVQLVESGGGLVQPGRSLRLSCAASGFTFDDYAMHWVRQAPGKGLEWVSGISWNSGSIGYADSVKGRFTLSRDNAKNSLFLQMDSLRAEDTALYYCAKDVSYRSGSYYRFWGGSGSWGQGTLVTVSS VL: DIQMTQSPSSLSASVGDRVTITCRASLSIRSYLNWYQQKPGKPPKLLIYAASSLQSGVPSRFSGSGSGTDFTLTISSLQPEDFATYYCQQSYSTPLTFGGGTKVEIK"
endpoint_unit = "pM"
data_value = 118

[[record]]
binder = "antibody 2788 (antibody, V domains shown) VH: QVQLVQSGAEVKKPGASVKVSCKVSGYTLIELSMHWVRQAPGKGLEWMGGFDPEGAETIYAQKFQGRVTMTEDTSTDTAYMELSSLRSDDTAVYYCATGPAVFAANWFDPWGQGTLVTVSS VL: QSALTQPPSASGSPGQSVTISCTGTSSDIGNYNNVSWYQQHPGKAPKLMIYDVIKRPSGVPDRFSGSKSGNTASLTVSGLQAEDEADYYCSSYAGKSYVFGTGTKVTVL"
endpoint_unit = "pM"
data_value = 117

